Cited source for all entries: ChEMBL document CHEMBL5331066

Tested on: Human immunodeficiency virus 1
Experiment: Antiviral activity against HIV1 harboring L100I mutant infected in human MT4 cells assessed as protection against virus-induced cytopathicity
Format: functional, organism-based
Settings: Human immunodeficiency virus 1, MT4
Endpoint Label: pEC50
// field semantics: pEC50 = negative decimal log of concentration (mol/L)

Take a look at these entries with their results.
O=c1[nH]c(=O)n(COCc2ccccc2)c(Sc2cc(F)cc(F)c2)c1C1CC1    6.37
O=c1[nH]c(=O)n(COCc2ccccc2)c(Sc2ccc(Cl)cc2Cl)c1C1CC1    5.35
O=c1[nH]c(=O)n(COCc2ccccc2)c(Sc2ccccc2Br)c1C1CC1    6.27

Attention now shifts to the item below.
Hello, please tell me recorded pEC50 for this one: `O=c1[nH]c(=O)n(COCc2ccccc2)c(Sc2cccc(Br)c2)c1C1CC1`
6.43
